Values were extracted from patent US20240270821A1.

Target: hGcgR (Homo sapiens, UniProt P47871)
Sequence (P47871 26-477): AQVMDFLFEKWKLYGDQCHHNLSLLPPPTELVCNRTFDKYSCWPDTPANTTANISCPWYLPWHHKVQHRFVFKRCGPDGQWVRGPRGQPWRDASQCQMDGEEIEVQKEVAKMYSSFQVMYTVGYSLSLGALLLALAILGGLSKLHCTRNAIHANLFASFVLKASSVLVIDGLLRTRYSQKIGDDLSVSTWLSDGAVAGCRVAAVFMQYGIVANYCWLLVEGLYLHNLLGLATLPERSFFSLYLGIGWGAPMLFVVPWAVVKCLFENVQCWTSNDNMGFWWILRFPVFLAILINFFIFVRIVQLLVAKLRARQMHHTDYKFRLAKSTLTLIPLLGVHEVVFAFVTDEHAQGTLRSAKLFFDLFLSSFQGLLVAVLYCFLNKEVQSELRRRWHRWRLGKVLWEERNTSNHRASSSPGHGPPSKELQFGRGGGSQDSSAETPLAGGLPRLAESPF
Experiment: Functional cAMP activation in the presence of 0.1% casein (no HSA);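 note: intracellular cAMP rise after 30 min at 37 °C, read by HTRF against a cAMP standard curve, scaled from buffer only (0%) to maximal control ligand response (100%)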
Type: cell-based
Conditions: in the presence of 0.1% casein (no HSA); geometric mean; read-out: Relative cAMP EC50, hGcgR
Starred links: 1 amine or outer side, 2 acyl side, 3 side chain; linkers in the order of their positions; H or OH if unused. Non-standard residues stand in square brackets, D forms with d. Groups on a side chain read outwards from the residue. No end group written: not given here. *: point of attachment. C18 diacid = O=C(O)CCCCCCCCCCCCCCCCC(=O)*; γGlu = O=C(O)[C@H](CCC(=O)[*:2])N[*:1]; αMe4Pal = C[C@](N)(Cc1ccncc1)C(=O)O; αMeY = C[C@](N)(Cc1ccc(O)cc1)C(=O)O; 4Pal = N[C@@H](Cc1ccncc1)C(=O)O; αMeL = CC(C)C[C@](C)(N)C(=O)O; Orn = NCCC[C@H](N)C(=O)O; AEEA = NCCOCCOCC(=O)O; Aib = CC(C)(N)C(=O)O
measurement-type: pEC50
Bear in mind: pEC50 is minus log10 of a mol/L concentration; give just that figure.

Here are 3 substances together with their reported answers.
Query block: Please report the recorded pEC50 for H-Y[Aib]QGTFTSDFS[Orn][αMeL]LDKK([AEEA-γGlu-C18 diacid])AQ[Aib]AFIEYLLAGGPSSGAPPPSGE[AEEA]-NH2 [Example 91] .
Result block: 8.04

Query block: Please report the recorded pEC50 for H-Y[Aib]QGTFTSDFS[Orn][αMeL]LDKK([AEEA-γGlu-C18 diacid])AQ[Aib]AFIEYLLE[dA]GPSS[Aib]APPPSGT-NH2 [Example 214] .
Result block: 8.60

Query block: Please report the recorded pEC50 for H-Y[Aib]QGTFTSD[4Pal]S[Orn][αMeL]LD[Orn]K([γGlu-γGlu-C18 diacid])AQ[αMe4Pal]EFIE[αMeY]LLAGGPSSGAPPPSGSEE-NH2 [Example 996] .
Result block: 7.83

Next:
Query block: Please report the recorded pEC50 for H-Y[Aib]QGTFTSD[4Pal]S[Orn][αMeL]LDKK([AEEA-γGlu-γGlu-C18 diacid])AQ[αMe4Pal]AFIE[αMe4Pal]LIE[Aib]GPSSGEPPPSGSE-NH2 [Example 988] .
Result block: 8.60

Query block: Please report the recorded pEC50 for Y[Aib]QGTFTSD[4Pal]SQ[αMeL]LD[Orn]K([dE-γGlu-C18 diacid])AQ[αMe4Pal]AFIQ[αMeY]LLEGGPSSGAPPPSGSEEE-NH2 [Example 1083] .
Result block: 7.82

Query block: Please report the recorded pEC50 for Y[Aib]QGTFTSD[4Pal]SQ[αMeL]LDKK([dE-γGlu-C18 diacid])AQ[αMe4Pal]AFIEYLIE[Aib]GPSSGAPPPSGSE-NH2 [Example 924] .
Result block: 8.22
